Ref: paper PMC10397247

Target: T1, 4H369-AA
T1 chain: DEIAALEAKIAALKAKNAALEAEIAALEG
Assay: two-hybrid library CCmax;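 note: natural log of median RNA to DNA barcode read ratio; higher means stronger binding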
Conditions: mean of both orientations
readoutType: interaction score

Req: Item under review: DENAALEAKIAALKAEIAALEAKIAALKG [4H1350-AA] . Reported interaction score?
Resp: 0.227

Req: Record: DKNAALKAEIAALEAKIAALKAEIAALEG [4H3625-AA]
Resp: -0.703

Req: Record: DKIAALKAENAALEAKIAALEAKIAALKG [4H2726-AA]
Resp: 1.68

Req: Record: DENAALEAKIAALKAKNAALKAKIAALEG [4H1405-AA]
Resp: -0.585

Req: Record: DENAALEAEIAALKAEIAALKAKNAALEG [4H1103-AA]
Resp: -1.5

Req: Record: DKIAALEAKNAALKAENAALEAEIAALEG [4H2513-AA]
Resp: -1.79

(P) DKIAALKAKIAALKAKNAALEAKNAALEG [4H2935-AA]
(Q) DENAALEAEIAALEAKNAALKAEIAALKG [4H1082-AA]
(R) DEIAALEAKIAALKAEIAALEAKNAALEG [4H327-AA]
Req: Order by interaction score, ascending. List each label, following the requested order.
Resp: P, R, Q
(P: -1.13, R: -0.747, Q: -0.173)

(1) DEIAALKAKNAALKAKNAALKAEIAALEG [4H1017-AA]
(2) DKNAALKAEIAALEAENAALEAKIAALEG [4H3605-AA]
Req: // task: argmin of interaction score over [ 1 , 2 ] Mark your selection by writing its label.
Resp: 1
(1: -1.44, 2: 1.77)
